test system: RXF 393; assay: Cytotoxicity against human RXF393 cells at 10 uM after 48 hrs by coulter counter analysis; assay type: functional; details: RXF 393, 48 h, read-out: GI
The following compounds are listed with their measured inhibition of growth at 10 µM values.

Use these answered entries as a reference point.
{"columns": ["Structure String", "Reported Result"],
 "data": [
  ["Cc1ccc2nc(Sc3ncccc3C(=O)O)n(-c3ccccc3)c(=O)c2c1", "< 10%"],
  ["COc1cc2nc(Sc3cnc(N)s3)n(-c3ccccc3)c(=O)c2cc1OC", "< 10%"],
  ["Cc1ccc2nc(Sc3cnc(N)s3)n(Cc3ccccc3)c(=O)c2c1", "< 10%"],
  ["COc1cc2nc(Sc3ncccc3C(=O)O)n(Cc3ccccc3)c(=O)c2cc1OC", "< 10%"],
  ["COc1cc2nc(Sc3cnc(N)s3)n(Cc3ccccc3)c(=O)c2cc1OC", "< 10%"]
]}

Next compound, please.
Can you share its inhibition of growth at 10 µM? I mean this compound: "Nc1ncc(Sc2nc3ccc(Cl)cc3c(=O)n2Cc2ccccc2)s1"
< 10%

Taken from ChEMBL document CHEMBL2375290.
